The values you see were collected from ChEMBL document CHEMBL4665860.

Listing: Emax of selected compounds
- assay_target: Cannabinoid receptor 1 (Homo sapiens, UniProt P21554)
- Sequence (P21554 whole entry): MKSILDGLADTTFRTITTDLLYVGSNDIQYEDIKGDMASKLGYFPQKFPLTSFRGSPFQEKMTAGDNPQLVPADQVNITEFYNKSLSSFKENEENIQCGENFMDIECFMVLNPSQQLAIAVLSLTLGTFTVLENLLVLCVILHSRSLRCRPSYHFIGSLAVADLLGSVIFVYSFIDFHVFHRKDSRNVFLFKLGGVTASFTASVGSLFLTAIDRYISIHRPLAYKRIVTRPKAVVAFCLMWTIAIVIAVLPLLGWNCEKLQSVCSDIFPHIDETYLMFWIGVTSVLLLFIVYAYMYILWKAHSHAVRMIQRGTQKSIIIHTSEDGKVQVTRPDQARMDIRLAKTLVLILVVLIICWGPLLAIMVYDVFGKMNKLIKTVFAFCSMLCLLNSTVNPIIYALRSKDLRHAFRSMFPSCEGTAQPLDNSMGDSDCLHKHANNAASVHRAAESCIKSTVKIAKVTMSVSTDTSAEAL
- test_name: Positive allosteric modulatory activity at human CB1 receptor expressed in CHO-K1 cells assessed as increase in CP55940-induced inhibition of forskolin-stimulated cAMP production preincubated for 30 mins followed by CP55940 addition and measured after 60 mins by Hit-hunter assay relative to control
- Assay type: functional, cell-based
- protocol_conditions: filed as positive allosteric modulator
reported_endpoint: Emax (%)

O=[N+]([O-])CC(c1ccc2ccccc2c1)c1c(-c2ccccc2)[nH]c2ccccc12 (centres undefined): 113
O=[N+]([O-])CC(c1ccccc1C(F)(F)F)c1c(-c2ccccc2)[nH]c2ccccc12 (centres undefined): 86.2
O=[N+]([O-])CC(c1ccco1)c1c(-c2ccccc2)[nH]c2ccccc12 (centres undefined): 99.8
COc1ccccc1C(C[N+](=O)[O-])c1c(-c2ccccc2)[nH]c2ccccc12 (centres undefined): 118
O=[N+]([O-])CC(c1ccc(N2CCCC2)cc1)c1c(-c2ccccc2)[nH]c2ccccc12 (centres undefined): 97.4
CC(C)(C)c1ccc(C(C[N+](=O)[O-])c2c(-c3ccccc3)[nH]c3ccccc23)cc1 (centres undefined): 109
O=[N+]([O-])CC(c1ccc(N2CCOCC2)cc1)c1c(-c2ccccc2)[nH]c2ccccc12 (centres undefined): 87.6
Cc1cccc(C(C[N+](=O)[O-])c2c(-c3ccccc3)[nH]c3ccccc23)c1 (centres undefined): 116
O=[N+]([O-])CC(c1ncco1)c1c(-c2ccccc2)[nH]c2ccccc12 (centres undefined): 56.6
O=[N+]([O-])CC(c1cccc(F)c1)c1c(-c2ccccc2)[nH]c2ccccc12 (centres undefined): 118
Cc1ccc2c(C(C[N+](=O)[O-])c3ncco3)c(-c3ccccc3)[nH]c2c1 (centres undefined): 67.2
O=[N+]([O-])CC(c1ccccc1Cl)c1c(-c2ccccc2)[nH]c2ccccc12 (centres undefined): 75
O=[N+]([O-])CC(c1ccc(C(F)(F)F)cc1)c1c(-c2ccccc2)[nH]c2ccccc12 (centres undefined): 65.1
Cc1ccc(C(C[N+](=O)[O-])c2c(-c3ccccc3)[nH]c3ccccc23)cc1 (centres undefined): 119
Cn1ccnc1C(C[N+](=O)[O-])c1c(-c2ccccc2)[nH]c2ccccc12 (centres undefined): 52.7
O=[N+]([O-])CC(c1ccsc1)c1c(-c2ccccc2)[nH]c2ccccc12 (centres undefined): 125
O=[N+]([O-])CC(c1ccc(N2CCCCC2)cc1)c1c(-c2ccccc2)[nH]c2ccccc12 (centres undefined): 125
O=[N+]([O-])CC(c1cccs1)c1c(-c2ccccc2)[nH]c2ccccc12 (centres undefined): 116
O=[N+]([O-])CC(c1nccs1)c1c(-c2ccccc2)[nH]c2ccccc12 (centres undefined): 83.7

###

- assay_target: Cannabinoid receptor 1 (Homo sapiens, UniProt P21554)
- test_name: Positive allosteric modulatory activity at human CB1 receptor expressed in CHO-K1 cells assessed as increase in CP55940-induced beta-arrestin recruitment […] and measured after 60 mins by PathHunter assay
- Assay type: cell-based
pEC50: −log10 of the molar value.
reported_endpoint: pEC50

O=[N+]([O-])CC(c1ccc(N2CCOCC2)cc1)c1c(-c2ccccc2)[nH]c2ccccc12 (centres undefined): < 5.00
O=[N+]([O-])CC(c1ccc2ccccc2c1)c1c(-c2ccccc2)[nH]c2ccccc12 (centres undefined): 5.63
Cn1ccnc1C(C[N+](=O)[O-])c1c(-c2ccccc2)[nH]c2ccccc12 (centres undefined): < 5.00
O=[N+]([O-])CC(c1cccc(C(F)(F)F)c1)c1c(-c2ccccc2)[nH]c2ccccc12 (centres undefined): < 5.00
O=[N+]([O-])CC(c1cccc(F)c1)c1c(-c2ccccc2)[nH]c2ccccc12 (centres undefined): < 5.00
O=[N+]([O-])CC(c1ccccc1N1CCCC1)c1c(-c2ccccc2)[nH]c2ccccc12 (centres undefined): < 5.00
Cn1cncc1C(C[N+](=O)[O-])c1c(-c2ccccc2)[nH]c2ccccc12 (centres undefined): < 5.00
Cc1ccccc1C(C[N+](=O)[O-])c1c(-c2ccccc2)[nH]c2ccccc12 (centres undefined): 7.24
O=[N+]([O-])CC(c1ccco1)c1c(-c2ccccc2)[nH]c2ccccc12 (centres undefined): 6.18

###

- assay_target: Cannabinoid receptor 1 (Homo sapiens, UniProt P21554)
- test_name: Positive allosteric modulatory activity at human CB1 receptor expressed in CHO-K1 cells assessed as increase in CP55940-induced beta-arrestin recruitment preincubated 90 mins followed by CP55940 addition and measured after 60 mins by PathHunter assay relative to CP55940
- Assay type: cell-based
- protocol_conditions: filed as positive allosteric modulator
reported_endpoint: Emax (%)

O=[N+]([O-])CC(c1ccccc1F)c1c(-c2ccccc2)[nH]c2ccccc12 (stereo not drawn): 56
O=[N+]([O-])CC(c1ccc(N2CCCCC2)cc1)c1c(-c2ccccc2)[nH]c2ccccc12 (stereo not drawn): 42.1
Cc1ccc2c(C(C[N+](=O)[O-])c3nccs3)c(-c3ccccc3)[nH]c2c1 (stereo not drawn): 80.6
O=[N+]([O-])CC(c1ccccc1)c1c(-c2ccccc2)[nH]c2ccccc12 (stereo not drawn): 54.1
Cc1ccc2c(C(C[N+](=O)[O-])c3cccs3)c(-c3ccccc3)[nH]c2c1 (stereo not drawn): 78.2
Cc1ccccc1C(C[N+](=O)[O-])c1c(-c2ccccc2)[nH]c2ccccc12 (stereo not drawn): 68.5
O=[N+]([O-])CC(c1ccccc1Cl)c1c(-c2ccccc2)[nH]c2ccccc12 (stereo not drawn): 93.4
O=[N+]([O-])CC(c1ccccc1C(F)(F)F)c1c(-c2ccccc2)[nH]c2ccccc12 (stereo not drawn): 68.1

###

- assay_target: Cannabinoid receptor 1 (Homo sapiens, UniProt P21554)
- test_name: Positive allosteric modulatory activity at human CB1 receptor expressed in CHO-K1 cells assessed as increase in CP55940-induced inhibition of forskolin-stimulated cAMP production preincubated for 30 mins followed by CP55940 addition and measured after 60 mins by Hit-hunter assay relative to control
- Assay type: functional, cell-based
- protocol_conditions: filed as positive allosteric modulator
Listing: Emax of selected molecules
reported_endpoint: Emax (%)

O=[N+]([O-])CC(Cc1ccccc1)c1c(-c2ccccc2)[nH]c2ccccc12 (centres undefined): 115
Cc1ccccc1C(C[N+](=O)[O-])c1c(-c2ccccc2)[nH]c2ccccc12 (centres undefined): 81.7
O=[N+]([O-])CC(c1cccc(Cl)c1)c1c(-c2ccccc2)[nH]c2ccccc12 (centres undefined): 121
O=[N+]([O-])CC(c1ccoc1)c1c(-c2ccccc2)[nH]c2ccccc12 (centres undefined): 144
COc1cccc(C(C[N+](=O)[O-])c2c(-c3ccccc3)[nH]c3ccccc23)c1 (centres undefined): 131
O=[N+]([O-])CC(c1ccccc1N1CCCC1)c1c(-c2ccccc2)[nH]c2ccccc12 (centres undefined): 75.9
COc1ccc(C(C[N+](=O)[O-])c2c(-c3ccccc3)[nH]c3ccccc23)cc1 (centres undefined): 119
O=[N+]([O-])CC(c1c(-c2ccccc2)[nH]c2ccccc12)C1CCCCC1 (centres undefined): 117
O=[N+]([O-])CC(c1c(Cl)cccc1Cl)c1c(-c2ccccc2)[nH]c2ccccc12 (centres undefined): 128

###

- assay_target: Cannabinoid receptor 1 (Homo sapiens)
- test_name: Positive allosteric modulatory activity at human CB1 receptor expressed in CHO-K1 cells assessed as increase in CP55940-induced beta-arrestin recruitment […] and measured after 60 mins by PathHunter assay
- Type: cell-based
pEC50: −log10 of the molar value.
reported_endpoint: pEC50

O=[N+]([O-])CC(c1cccc2ccccc12)c1c(-c2ccccc2)[nH]c2ccccc12 (stereo not given): < 5.00
O=[N+]([O-])CC(c1ccccc1F)c1c(-c2ccccc2)[nH]c2ccccc12 (stereo not given): 6.11
O=[N+]([O-])CC(c1ccc(C(F)(F)F)cc1)c1c(-c2ccccc2)[nH]c2ccccc12 (stereo not given): < 5.00
COc1cccc(C(C[N+](=O)[O-])c2c(-c3ccccc3)[nH]c3ccccc23)c1 (stereo not given): < 5.00
O=[N+]([O-])CC(c1ccc[nH]1)c1c(-c2ccccc2)[nH]c2ccccc12 (stereo not given): < 5.00

###

- assay_target: Cannabinoid receptor 1 (Homo sapiens, UniProt P21554)
- test_name: Positive allosteric modulatory activity at human CB1 receptor expressed in CHO-K1 cells assessed as increase in CP55940-induced inhibition of forskolin-stimulated cAMP production preincubated for 30 mins followed by CP55940 addition and measured after 60 mins by Hit-hunter assay relative to control
- Assay type: functional, cell-based
- protocol_conditions: filed as positive allosteric modulator
reported_endpoint: Emax (%)

Cn1cncc1C(C[N+](=O)[O-])c1c(-c2ccccc2)[nH]c2ccccc12 (stereo not drawn): 46.1
O=[N+]([O-])CC(c1ccc(Cl)cc1)c1c(-c2ccccc2)[nH]c2ccccc12 (stereo not drawn): 74.8
Cc1ccc2c(C(C[N+](=O)[O-])c3nccs3)c(-c3ccccc3)[nH]c2c1 (stereo not drawn): 98.5
O=[N+]([O-])CC(c1cccc2ccccc12)c1c(-c2ccccc2)[nH]c2ccccc12 (stereo not drawn): 62.2
O=[N+]([O-])CC(c1cccc(C(F)(F)F)c1)c1c(-c2ccccc2)[nH]c2ccccc12 (stereo not drawn): 151
O=[N+]([O-])CC(c1cccc(N2CCCC2)c1)c1c(-c2ccccc2)[nH]c2ccccc12 (stereo not drawn): 110
O=[N+]([O-])CC(c1ccc[nH]1)c1c(-c2ccccc2)[nH]c2ccccc12 (stereo not drawn): 77.1
O=[N+]([O-])CC(c1ccccc1)c1c(-c2ccccc2)[nH]c2ccccc12 (stereo not drawn): 99.6
